Numbers sourced from ChEMBL document CHEMBL3526037.

# procedure-text: Half life in human plasma expressing CYP2C9*1/*1 polymorphism at 25 to 32 mg by LC/MS/MS analysis
# Format: ADME, organism-based
experimental-endpoint: half-life (h)

[[record]]
chem_smiles = "CCOc1nc2cccc(C(=O)O)c2n1Cc1ccc(-c2ccccc2-c2nnn[nH]2)cc1"
experimental_endpoint = "half-life"
result_number = 10.9


====

# procedure-text: Half life in human plasma expressing CYP2C9*3 allele carrier polymorphism at 25 to 32 mg by LC/MS/MS analysis
# Format: ADME, organism-based
experimental-endpoint: half-life (h)

[[record]]
chem_smiles = "CCOc1nc2cccc(C(=O)O)c2n1Cc1ccc(-c2ccccc2-c2nnn[nH]2)cc1"
result_number = 12.1


====

# procedure-text: AUC in human plasma expressing CYP2C8*4 allele carrier polymorphism at 25 to 32 mg by LC/MS/MS analysis
# Format: ADME, organism-based
experimental-endpoint: AUC (ng·h/mL)

[[record]]
chem_smiles = "CCOc1nc2cccc(C(=O)O)c2n1Cc1ccc(-c2ccccc2-c2nnn[nH]2)cc1"
experimental_endpoint = "AUC"
unit_of_measurement = "ng·h/mL"
result_number = 4130


====

# procedure-text: AUC in human plasma expressing CYP2C9*1/*1 polymorphism at 80 mg by LC/MS/MS analysis
# Type: ADME, organism-based
experimental-endpoint: AUC

[[record]]
chem_smiles = "CCCc1nc2c(C)cc(-c3nc4ccccc4n3C)cc2n1Cc1ccc(-c2ccccc2C(=O)O)cc1"
result = "3130 ng·h/mL"


====

# procedure-text: Tmax in human plasma expressing CYP2C8*4 allele carrier polymorphism at 25 to 320 mg by LC/MS/MS analysis
# Assay type: ADME, organism-based
experimental-endpoint: Tmax (h)

[[record]]
chem_smiles = "CCCCC(=O)N(Cc1ccc(-c2ccccc2-c2nnn[nH]2)cc1)[C@H](C(=O)O)C(C)C"
result_number = 2.8


====

# procedure-text: Tmax in human plasma expressing CYP2C9*1/*1 polymorphism at 25 to 32 mg by LC/MS/MS analysis
# Assay type: ADME, organism-based
experimental-endpoint: Tmax (h)

[[record]]
chem_smiles = "CCOc1nc2cccc(C(=O)O)c2n1Cc1ccc(-c2ccccc2-c2nnn[nH]2)cc1"
experimental_endpoint = "Tmax"
result_number = 5.1


====

# procedure-text: Tmax in human plasma expressing CYP2C9*2 allele carrier polymorphism at 50 mg by LC/MS/MS analysis
# Type: ADME, organism-based
experimental-endpoint: Tmax (h)

[[record]]
chem_smiles = "CCCCc1nc(Cl)c(CO)n1Cc1ccc(-c2ccccc2-c2nn[nH]n2)cc1"
result_number = 1.1


====

# procedure-text: Cmax in human plasma expressing CYP2C9*2 allele carrier polymorphism at 25 to 320 mg by LC/MS/MS analysis
# Format: ADME, organism-based
experimental-endpoint: Cmax (ng/mL)

[[record]]
chem_smiles = "CCCCC(=O)N(Cc1ccc(-c2ccccc2-c2nnn[nH]2)cc1)[C@H](C(=O)O)C(C)C"
experimental_endpoint = "Cmax"
unit_of_measurement = "ng/mL"
result_number = 4840


====

# procedure-text: AUC in human plasma expressing CYP2C8*3 allele carrier polymorphism at 25 to 32 mg by LC/MS/MS analysis
# Type: ADME, organism-based
experimental-endpoint: AUC (ng·h/mL)

[[record]]
chem_smiles = "CCOc1nc2cccc(C(=O)O)c2n1Cc1ccc(-c2ccccc2-c2nnn[nH]2)cc1"
experimental_endpoint = "AUC"
result_number = 3450


====

# procedure-text: Cmax in human plasma expressing CYP2C9*3 allele carrier polymorphism at 25 to 32 mg by LC/MS/MS analysis
# Assay type: ADME, organism-based
experimental-endpoint: Cmax (ng/mL)

[[record]]
chem_smiles = "CCOc1nc2cccc(C(=O)O)c2n1Cc1ccc(-c2ccccc2-c2nnn[nH]2)cc1"
unit_of_measurement = "ng/mL"
result_number = 230


====

# procedure-text: Tmax in human plasma expressing CYP2C9*2 allele carrier polymorphism at 25 to 32 mg by LC/MS/MS analysis
# Type: ADME, organism-based
experimental-endpoint: Tmax (h)

[[record]]
chem_smiles = "CCOc1nc2cccc(C(=O)O)c2n1Cc1ccc(-c2ccccc2-c2nnn[nH]2)cc1"
result_number = 4.8


====

# procedure-text: Tmax in human plasma expressing CYP2C8*4 allele carrier polymorphism at 25 to 32 mg by LC/MS/MS analysis
# Type: ADME, organism-based
experimental-endpoint: Tmax (h)

[[record]]
chem_smiles = "CCOc1nc2cccc(C(=O)O)c2n1Cc1ccc(-c2ccccc2-c2nnn[nH]2)cc1"
experimental_endpoint = "Tmax"
result_number = 4.1


====

# procedure-text: Half life in men plasma treated with losartan at 50 mg by LC/MS/MS analysis
# Type: ADME, organism-based
# experimental-context: male, human
experimental-endpoint: half-life (h)

[[record]]
molecule = "CCCCc1nc(Cl)c(C(=O)O)n1Cc1ccc(-c2ccccc2-c2nn[nH]n2)cc1 [CARBOXYLIC ACID METABOLITE]"
result_number = 4.9


====

# procedure-text: AUC in human plasma expressing CYP2C8*3 allele carrier polymorphism at 50 mg by LC/MS/MS analysis
# Format: ADME, organism-based
experimental-endpoint: AUC

[[record]]
compound = "CCCCc1nc(Cl)c(CO)n1Cc1ccc(-c2ccccc2-c2nn[nH]n2)cc1 [LOSARTAN]"
result = "413 ng·h/mL"


====

# procedure-text: Half life in human plasma expressing CYP2C9*1/*1 polymorphism at 50 mg by LC/MS/MS analysis
experimental-endpoint: half-life (h)

[[record]]
compound = "CCCCc1nc(Cl)c(CO)n1Cc1ccc(-c2ccccc2-c2nn[nH]n2)cc1 [LOSARTAN]"
result_number = 2.3


====

# procedure-text: Clearance in men plasma at 25 to 32 mg by LC/MS/MS analysis
# Type: ADME, organism-based
# experimental-context: male, human
experimental-endpoint: clearance (mL/min/kg)

[[record]]
chem_smiles = "CCOc1nc2cccc(C(=O)O)c2n1Cc1ccc(-c2ccccc2-c2nnn[nH]2)cc1"
result_number = 2.33


====

# procedure-text: Tmax in human plasma expressing CYP2C8*3 allele carrier polymorphism at 50 mg by LC/MS/MS analysis
# Assay type: ADME, organism-based
experimental-endpoint: Tmax (h)

[[record]]
molecule = "CCCCc1nc(Cl)c(CO)n1Cc1ccc(-c2ccccc2-c2nn[nH]n2)cc1 [LOSARTAN]"
experimental_endpoint = "Tmax"
unit_of_measurement = "h"
result_number = 1


====

# procedure-text: Cmax in human plasma expressing CYP2C8*4 allele carrier polymorphism treated with losartan at 50 mg by LC/MS/MS analysis
# Format: ADME, organism-based
# Design: dose 50 mg
experimental-endpoint: Cmax (ng/mL)

[[record]]
compound = "CCCCc1nc(Cl)c(C(=O)O)n1Cc1ccc(-c2ccccc2-c2nn[nH]n2)cc1 [CARBOXYLIC ACID METABOLITE]"
experimental_endpoint = "Cmax"
result_number = 382


====

# procedure-text: Half life in human plasma expressing CYP2C8*4 allele carrier polymorphism treated with losartan at 50 mg by LC/MS/MS analysis
# Format: ADME, organism-based
experimental-endpoint: half-life (h)

[[record]]
compound = "CCCCc1nc(Cl)c(C(=O)O)n1Cc1ccc(-c2ccccc2-c2nn[nH]n2)cc1 [CARBOXYLIC ACID METABOLITE]"
unit_of_measurement = "h"
result_number = 4.6


====

# procedure-text: Tmax in women plasma at 25 to 32 mg by LC/MS/MS analysis
# Type: ADME, organism-based
# experimental-context: female, human
experimental-endpoint: Tmax (h)

[[record]]
chem_smiles = "CCOc1nc2cccc(C(=O)O)c2n1Cc1ccc(-c2ccccc2-c2nnn[nH]2)cc1"
experimental_endpoint = "Tmax"
unit_of_measurement = "h"
result_number = 4.9


====

# procedure-text: Half life in human plasma expressing CYP2C8*1/*1 polymorphism at 25 to 320 mg by LC/MS/MS analysis
# Format: ADME, organism-based
experimental-endpoint: half-life (h)

[[record]]
chem_smiles = "CCCCC(=O)N(Cc1ccc(-c2ccccc2-c2nnn[nH]2)cc1)[C@H](C(=O)O)C(C)C"
result_number = 9.3


====

# procedure-text: Cmax in human plasma expressing CYP2C8*4 allele carrier polymorphism at 25 to 320 mg by LC/MS/MS analysis
# Type: ADME, organism-based
experimental-endpoint: Cmax (ng/mL)

[[record]]
chem_smiles = "CCCCC(=O)N(Cc1ccc(-c2ccccc2-c2nnn[nH]2)cc1)[C@H](C(=O)O)C(C)C"
unit_of_measurement = "ng/mL"
result_number = 4860


====

# procedure-text: Tmax in human plasma expressing CYP2C8*1/*1 polymorphism at 80 mg by LC/MS/MS analysis
# Format: ADME, organism-based
experimental-endpoint: Tmax

[[record]]
chem_smiles = "CCCc1nc2c(C)cc(-c3nc4ccccc4n3C)cc2n1Cc1ccc(-c2ccccc2C(=O)O)cc1"
result = "1.4 h"


====

# procedure-text: Clearance in women plasma at 50 mg by LC/MS/MS analysis
# Format: ADME, organism-based
# experimental-context: female, human
experimental-endpoint: clearance (mL/min/kg)

[[record]]
chem_smiles = "CCCCc1nc(Cl)c(CO)n1Cc1ccc(-c2ccccc2-c2nn[nH]n2)cc1"
experimental_endpoint = "clearance"
result_number = 30.3

